- assay: Pharmacokinetics study after separate oral administration in rats (HPLC-MS of plasma)
- Type: in vivo, Sprague-Dawley rats
- particulars: male, Sprague-Dawley, rat, plasma, po, 50 mg/kg, QG group (oral QG 50 mg/kg), rat plasma; labelled substance = analyte; mean of 5 rats; read-out: Tmax (converted)
Tmax values by entry
Dear colleague, please return just the value in h, with no unit written.

O=C(O)[C@H]1O[C@@H](Oc2c(-c3ccc(O)c(O)c3)oc3cc(O)cc(O)c3c2=O)[C@H](O)[C@@H](O)[C@@H]1O [QG, Quercetin-3-O-β-D-glucuronide] :: 3.7

IN: I am curious: what Tmax value has been reported for `O=c1c(O)c(-c2ccc(O)c(O)c2)oc2cc(O)cc(O)c12` ?
OUT: 6

* * *

- assay: Pharmacokinetics study after separate oral administration in rats (HPLC-MS of plasma)
- Assay type: in vivo, Sprague-Dawley rats
- particulars: male, Sprague-Dawley, rat, plasma, oral, 50 mg/kg, QG group (oral QG 50 mg/kg), 15 min, individual rats NO. 1-5; read-out: Plasma concentrations
property-label: concentration at 15 min
Respond with the figure and its unit, in that order.

IN: I am curious: what concentration at 15 min value has been reported for `O=c1c(O)c(-c2ccc(O)c(O)c2)oc2cc(O)cc(O)c12` ?
OUT: 0 ng/mL

* * *

Tmax values by entry
- assay: Pharmacokinetics study after separate oral administration in rats (HPLC-MS of plasma)
- Assay type: in vivo, Sprague-Dawley rats
- particulars: male, Sprague-Dawley, rat, plasma, po, 50 mg/kg, IQ group: oral IQ 50 mg/kg, rat plasma, mean ± SD, n = 5; read-out: Tmax (converted)
Dear colleague, please return just the value in min, with no unit written.

Here is how some molecules turned out for Tmax.
O=c1c(O)c(-c2ccc(O)c(O)c2)oc2cc(O)cc(O)c12 [Qr, Quercetin] :: 42
O=c1c(O[C@@H]2O[C@H](CO)[C@@H](O)[C@H](O)[C@H]2O)c(-c2ccc(O)c(O)c2)oc2cc(O)cc(O)c12 [IQ, Isoquercitrin] :: 27

IN: I am curious: what Tmax value has been reported for O=C(O)[C@H]1O[C@@H](Oc2c(-c3ccc(O)c(O)c3)oc3cc(O)cc(O)c3c2=O)[C@H](O)[C@@H](O)[C@@H]1O [QG, Quercetin-3-O-β-D-glucuronide] ?
OUT: 30

* * *

- assay: Pharmacokinetics study after separate oral administration in rats (HPLC-MS of plasma)
- Type: in vivo, Sprague-Dawley rats
- particulars: male, Sprague-Dawley, rat, plasma, oral, 50 mg/kg, IQ group (oral IQ 50 mg/kg), 240 min, individual rats NO. 1-5; read-out: Plasma concentrations
- Method: A total of 15 SPF Sprague-Dawley rats (SD, male, 190–210 g) were provided by Sino-British Sippr/BK Lab Animal Company Ltd. (Shanghai, China). The rats were kept in standard conditions (22–26 °C; 40–60% relative humidity; 12 h light/dark cycle). Throughout the rearing period, the animals had access to food and water ad libitum. Animal experiments were conducted in accordance with the standard ethical guidelines of the Laboratory Animal Management Committee of Jiangsu Province (SYXK (SU) 2016-0011). […]
property-label: concentration at 240 min (ng/mL)
Dear colleague, please return just the value in ng/mL, with no unit written.

IN: I am curious: what concentration at 240 min value has been reported for O=c1c(O[C@@H]2O[C@H](CO)[C@@H](O)[C@H](O)[C@H]2O)c(-c2ccc(O)c(O)c2)oc2cc(O)cc(O)c12 [IQ, Isoquercitrin] ?
OUT: 0
